// values below are reported Conversion Rate
Test system: Torulopsis sp. Strain A1 (NRRLY-11,419)
Assay: Oxidation of sec-alcohols to ketones by cell suspensions of yeasts
Format: cell-based
Conditions: growth substrate Propylamine; sec-alcohol to methyl ketone

Known results for molecules:
1. CCCCC(C)O (stereo not shown) ... 0.10 μmoles/hr/mg of protein
2. CCC(C)O (stereo not shown) ... 3.8 μmoles/hr/mg of protein
3. CCCC(C)O (stereo not shown) ... 0.62 μmoles/hr/mg of protein

Consider now this further molecule.
Could you tell me which Conversion Rate is on file for CC(C)O ?
3.2 μmoles/hr/mg of protein

----------
Test system: purified secondary alcohol dehydrogenase from Pichia sp. NRRL Y-11,328
Test: Substrate specificity, electron acceptor and stoichiometry of purified yeast SADH
Format: biochemical
Conditions: examined spectrophotometrically
ENDPOINT_NAME: oxidation by the purified enzyme

These solved cases illustrate the format of a correct answer.
1. CCCC(C)O (centres unmarked) [2-Pentanol] ... catalyzed the oxidation
2. CCCCCCC(C)O (centres unmarked) [2-octanol] ... not oxidized
3. CCC(O)CO (centres unmarked) [butane 1,2-diol] ... not oxidized
4. CCC(C)O (centres unmarked) [2-Butanol] ... catalyzed the oxidation
5. CCCCO [butan-1-ol] ... not oxidized
6. CCCCCC(C)O (centres unmarked) [2-Heptanol] ... not oxidized

Requested field: oxidation by the purified enzyme. Item: CCCO [propan-1-ol]
not oxidized

oxidation by the purified enzyme for CCCCCO [pentan-1-ol] ?
not oxidized

Need oxidation by the purified enzyme, item CC(C)O [Isopropanol]
catalyzed the oxidation

Quick check: oxidation by the purified enzyme of CO [methanol] ?
not oxidized

Consider the molecule CC(O)CO (centres unmarked) [1,2-propandiol] and give its measured oxidation by the purified enzyme.
not oxidized

Can you share its oxidation by the purified enzyme? I mean this molecule: CCO [ethanol]
not oxidized

// returns reported oxidation by the purified enzyme for input CC(O)CCO (centres unmarked) [butane 1,3-diol]
not oxidized

Given the molecule CCCCC(C)O (centres unmarked) [2-Hexanol] , what is its reported oxidation by the purified enzyme?
catalyzed the oxidation

// provenance: patent US4347319A
